# System: MCAD-deficient fibroblasts
# assay-method-text: Fate of odd-carbon fatty acids in MCAD-deficient fibroblasts
# Type: cell-based, human
# condition-details: MCAD-1 fibroblast cell line
Task for the reader: assign each of the following compounds its reported Propionylcarnitine from odd carbon precursor.
Write the numeric value and follow it with the unit.

CCCCCCC(=O)O [C7, heptanoate, reference compound]    10.6 nmol/mg Protein/72 hours
CCCCCCCCCCCCCCC(=O)O    6.9 nmol/mg Protein/72 hours
CCCCC(=O)O    25.8 nmol/mg Protein/72 hours

Name the recorded Propionylcarnitine from odd carbon precursor for CCCCCCCCC(=O)O [C9, nonanoate, reference compound] .
1.8 nmol/mg Protein/72 hours

---

# Tested on: MCAD-deficient fibroblasts
# assay-method-text: Fate of odd-carbon fatty acids in MCAD-deficient fibroblasts
# Format: cell-based, human
# condition-details: MCAD-2 fibroblast cell line
Task for the reader: assign each of the following molecules its reported Propionylcarnitine from odd carbon precursor.
Numbers only, in nmol/mg Protein/72 hours.

CCCCCCC(=O)O [C7, heptanoate, reference compound]    17.4

I would be grateful if you could provide Propionylcarnitine from odd carbon precursor for each of the following entries.
1. CCCCC(=O)O [C5, n-pentanoic acid]
2. CCCCCCCCC(=O)O [C9, nonanoate, reference compound]

58.5
2.9

Item CCCCCCCCCCCCCCC(=O)O [C15, n-pentadecanoic acid] with MCAD-deficient fibroblasts - Propionylcarnitine from odd carbon precursor?
19.6
